FYI, the data here is from the RNAGym collection of RNA variant scans (doi:10.7554/elife.80360).

B1: Hairpin Ribozyme (parent)
chain: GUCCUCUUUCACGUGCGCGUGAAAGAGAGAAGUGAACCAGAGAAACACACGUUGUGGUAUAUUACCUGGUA

Variants of: B1
Procedure Details: self-cleavage, relative activity (ratio to wild type); higher = more cleavage; co-transcriptional
Would you mind classing the entries by self-cleavage? Ranges: label 0 = under 0.1, label 1 = from 0.1 up to 0.3, label 2 = 0.3 and over

• G21U A26C = label 1
• C16U A44U = label 1
• G17U U53G = label 2
• U2A C4G = label 0
• A28U C37A = label 1
• U14A A59C = label 1
• U7C A44G = label 0
• U9C C10G = label 2
• A26G U67C = label 1
• U53C U70A = label 2
• C4G U9C = label 1
• U2C U14G = label 0
• C18U A41C = label 2
• A24C A49U = label 1
• G54C G56A = label 1
• C3A U60A = label 2
• A23C U67A = label 1
• U7A C10A = label 2
• U67A G68C = label 1
• G19C G54U = label 2
• A35G A45G = label 0
• G42A A47C = label 1
• A24C G69U = label 1
• A11U A64U = label 1
• C18A C37A = label 2
• C4G C37U = label 1
• A11G G32C = label 0
